# target_or_system: human DCN1 (residues 58–259), N-terminal His6 tag (human, UniProt Q96GG9 58-259)
# Sequence (Q96GG9 58-259): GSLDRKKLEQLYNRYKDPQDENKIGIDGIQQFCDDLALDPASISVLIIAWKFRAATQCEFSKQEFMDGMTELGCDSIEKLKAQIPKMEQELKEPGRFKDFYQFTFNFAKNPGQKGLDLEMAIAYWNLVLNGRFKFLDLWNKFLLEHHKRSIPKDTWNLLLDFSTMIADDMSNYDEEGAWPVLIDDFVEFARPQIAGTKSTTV
# procedure_details: FP
pKi: −log10 of the molar value. Where no end group is shown, it is not given here. [ ]: non-standard residue; d: D form. Phe(3-CN) = N#Cc1cccc(C[C@H](N)C(=O)O)c1; Phe(2-Cl) = N[C@@H](Cc1ccccc1Cl)C(=O)O
Group membership follows pKi per the scheme LOW: < 4; MEDIUM: ≥ 4 and < 5; HIGH: ≥ 5

# binder, label
measured = [
    ("[Phe(2-Cl)]IKL [compound 13 (11 with Cl at the ortho position of the phenyl ring)]", "LOW"),
]

Kindly review the next binder as well.
Record [Phe(3-CN)]IKL [analog of 11 containing an m-CN substituted phenyl] — which class?
LOW
